# IC50 annotations
Target: PI3K δ (Homo sapiens)
Construct: purchased Upstate / Millipore Corporation
Assay: PI 3-Kinase (human) HTRF assay, PI3K δ
Type: biochemical
Details: read-out: PI3K δ IC50

{"compound": "Nc1nc2cc(-c3ccc4ncc(N5CC(N6CCNC(=O)C6)C5)nc4c3)ccc2o1", "IC50": "< 10 µM"}
{"compound": "COc1ncc(-c2ccc3ncn(C4CCN(C)CC4)c(=O)c3c2)cc1NS(C)(=O)=O", "IC50": "< 0.1 µM"}
{"compound": "CC(N)C(=O)N1CCN(c2cnc3ccc(-c4ccc5oc(N)nc5c4)cc3n2)CC1 (centres unmarked)", "IC50": "< 1 µM"}
{"compound": "CN1CCCN(C(=O)c2cnc3ccc(-c4ccc5oc(N)nc5c4)cn23)CC1", "IC50": "> 10 µM"}
{"compound": "CC(=O)Nc1cc2ccc(-c3cc(F)c4oc(N)nc4c3)cn2n1", "IC50": "> 10 µM"}

[ask] Give the measured IC50 for Nc1nc2cc(-c3ccc4nnc(-c5cccnc5)n4c3)ccc2o1
[reply] > 10 µM

[ask] Give the measured IC50 for COc1ncc(-c2ccc3ncc(C(=O)N4CCOCC4)n3c2)cc1NS(=O)(=O)c1ccc(F)cc1
[reply] < 0.1 µM

* * *

# pIC50 annotations
Target: PI3K γ (p110γ) (Homo sapiens)
Construct: purchased Upstate / Millipore Corporation
Test: PI 3-Kinase (human) HTRF assay, PI3K γ
Assay type: biochemical
Conditions: read-out: PI3K γ IC50
pIC50: −log10 of the molar value.

[ask] Give the measured pIC50 for Nc1nc2cc(-c3ccc4ncnc(NC5CCOCC5)c4c3)ccc2o1
[reply] > 7.00

[ask] Give the measured pIC50 for Nc1nc2cc(-c3ccc4ncc(N5CCN(C(=O)[C@@H]6CCCN6)CC5)nc4c3)ccc2o1
[reply] > 7.00

[ask] Give the measured pIC50 for Nc1nc2cc(-c3ccc4ncc(C(=O)N5CC(F)C5)n4c3)ccc2o1
[reply] > 7.00

[ask] Give the measured pIC50 for CO[C@H]1CCN(C(=O)c2cnc3ccc(-c4ccc5oc(N)nc5c4)cn23)C1
[reply] > 6.00

[ask] Give the measured pIC50 for CN(C)C1CN(c2cnc3ccc(-c4ccc5oc(N)nc5c4)cc3n2)C1
[reply] > 5.00

[ask] Give the measured pIC50 for CN1CCN(C(=O)c2cnc3cnc(-c4ccc5oc(N)nc5c4)cn23)CC1
[reply] < 5.00

[ask] Give the measured pIC50 for Nc1nc2ccc(-c3ccc4nnc(-c5ccncc5)n4c3)cc2o1
[reply] > 6.00

[ask] Give the measured pIC50 for CN1CC(C(=O)N2CCC(Nc3ncnc4ccc(-c5ccc6oc(N)nc6c5)cc34)CC2)C1
[reply] > 6.00

* * *

Target: mTOR (Homo sapiens, UniProt P42345)
Construct: purchased Invitrogen
Sequence (P42345 1360-2549 limits assumed): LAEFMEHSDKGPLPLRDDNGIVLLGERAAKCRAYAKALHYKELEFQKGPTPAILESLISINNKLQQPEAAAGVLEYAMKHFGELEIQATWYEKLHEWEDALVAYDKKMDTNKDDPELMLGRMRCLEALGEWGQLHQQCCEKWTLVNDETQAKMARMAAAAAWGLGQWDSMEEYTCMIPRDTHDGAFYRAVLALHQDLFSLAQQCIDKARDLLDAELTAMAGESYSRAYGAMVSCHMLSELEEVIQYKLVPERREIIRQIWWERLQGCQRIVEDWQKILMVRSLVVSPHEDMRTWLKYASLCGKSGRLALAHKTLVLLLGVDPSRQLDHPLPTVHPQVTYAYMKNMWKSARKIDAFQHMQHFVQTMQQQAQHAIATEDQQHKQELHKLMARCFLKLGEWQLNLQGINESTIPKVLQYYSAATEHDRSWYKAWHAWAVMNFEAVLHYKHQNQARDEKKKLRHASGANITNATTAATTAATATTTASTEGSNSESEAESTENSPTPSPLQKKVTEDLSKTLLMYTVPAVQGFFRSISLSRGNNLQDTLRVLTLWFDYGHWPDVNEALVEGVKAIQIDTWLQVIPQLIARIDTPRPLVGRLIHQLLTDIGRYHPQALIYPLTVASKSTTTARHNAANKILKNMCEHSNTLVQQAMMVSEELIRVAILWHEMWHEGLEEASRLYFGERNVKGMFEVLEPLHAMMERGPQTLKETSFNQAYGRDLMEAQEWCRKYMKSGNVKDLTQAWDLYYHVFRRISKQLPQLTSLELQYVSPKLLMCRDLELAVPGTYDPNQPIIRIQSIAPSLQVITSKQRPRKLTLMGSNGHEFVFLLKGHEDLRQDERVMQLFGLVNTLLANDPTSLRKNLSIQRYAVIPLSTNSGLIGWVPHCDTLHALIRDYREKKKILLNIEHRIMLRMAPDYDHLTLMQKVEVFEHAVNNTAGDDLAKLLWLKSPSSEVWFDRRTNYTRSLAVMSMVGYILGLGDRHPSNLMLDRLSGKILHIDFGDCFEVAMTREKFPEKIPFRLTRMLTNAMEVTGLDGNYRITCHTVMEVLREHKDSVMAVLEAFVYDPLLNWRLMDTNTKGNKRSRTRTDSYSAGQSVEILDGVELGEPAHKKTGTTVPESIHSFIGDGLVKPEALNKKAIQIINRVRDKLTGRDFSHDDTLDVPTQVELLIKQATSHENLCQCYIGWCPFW
Assay: mTOR kinase inhibition assay (radiometric or LanthaScreen TR-FRET)
Format: biochemical
Conditions: read-out: mTORC IC50
measure: IC50

[ask] Give the measured IC50 for Nc1nc2cc(-c3ccc4ncc(-c5ccncc5)n4n3)ccc2o1
[reply] < 1 µM

[ask] Give the measured IC50 for CN1CCN(C(=O)c2cnc3ccc(-c4ccc5oc(N)nc5c4)cn23)CC1
[reply] < 10 µM

[ask] Give the measured IC50 for Nc1nc2cc(-c3ccc4ncc(N5CC(N6CCN(C7CC7)CC6)C5)nc4c3)ccc2o1
[reply] < 10 µM

[ask] Give the measured IC50 for Nc1nc2cc(-c3ccc4ncc(N5CCC(N6CCOCC6)CC5)nc4c3)ccc2o1
[reply] > 10 µM

[ask] Give the measured IC50 for Nc1nc2cc(-c3ccc4ncc(N5CC(N6CCOCC6)C5)nc4c3)c(F)cc2o1
[reply] > 10 µM

[ask] Give the measured IC50 for CC(=O)N1CCC(N(C)c2ncnc3ccc(-c4ccc5oc(N)nc5c4)cc23)CC1
[reply] > 10 µM

[ask] Give the measured IC50 for Nc1nc2cc(-c3ccc4ncc(N5CC(N6CCNCC6)C5)nc4c3)ccc2o1
[reply] > 10 µM

[ask] Give the measured IC50 for Nc1nc2cc(-c3ccc4ncc(N5CC(n6cccn6)C5)nc4c3)ccc2o1
[reply] < 1 µM

[ask] Give the measured IC50 for CS(=O)(=O)Nc1cc(-c2ccc3ncc(C(=O)N4CCOCC4)n3c2)cnc1Cl
[reply] < 0.1 µM

[ask] Give the measured IC50 for Nc1nc2cc(-c3ccc4ncc(=O)[nH]c4c3)ccc2o1
[reply] < 1 µM

[ask] Give the measured IC50 for Nc1nc2cc(-c3ccc4ncc(NCCN5CCOCC5)nc4c3)ccc2o1
[reply] > 10 µM

[ask] Give the measured IC50 for Nc1nc2cc(-c3ccc4ncc(N5CC(N6CCN(CCO)CC6)C5)nc4c3)ccc2o1
[reply] > 10 µM

* * *

Target: PI3K γ (p110γ) (Homo sapiens, UniProt P48736)
Construct: purchased Upstate / Millipore Corporation
Sequence (P48736 whole entry): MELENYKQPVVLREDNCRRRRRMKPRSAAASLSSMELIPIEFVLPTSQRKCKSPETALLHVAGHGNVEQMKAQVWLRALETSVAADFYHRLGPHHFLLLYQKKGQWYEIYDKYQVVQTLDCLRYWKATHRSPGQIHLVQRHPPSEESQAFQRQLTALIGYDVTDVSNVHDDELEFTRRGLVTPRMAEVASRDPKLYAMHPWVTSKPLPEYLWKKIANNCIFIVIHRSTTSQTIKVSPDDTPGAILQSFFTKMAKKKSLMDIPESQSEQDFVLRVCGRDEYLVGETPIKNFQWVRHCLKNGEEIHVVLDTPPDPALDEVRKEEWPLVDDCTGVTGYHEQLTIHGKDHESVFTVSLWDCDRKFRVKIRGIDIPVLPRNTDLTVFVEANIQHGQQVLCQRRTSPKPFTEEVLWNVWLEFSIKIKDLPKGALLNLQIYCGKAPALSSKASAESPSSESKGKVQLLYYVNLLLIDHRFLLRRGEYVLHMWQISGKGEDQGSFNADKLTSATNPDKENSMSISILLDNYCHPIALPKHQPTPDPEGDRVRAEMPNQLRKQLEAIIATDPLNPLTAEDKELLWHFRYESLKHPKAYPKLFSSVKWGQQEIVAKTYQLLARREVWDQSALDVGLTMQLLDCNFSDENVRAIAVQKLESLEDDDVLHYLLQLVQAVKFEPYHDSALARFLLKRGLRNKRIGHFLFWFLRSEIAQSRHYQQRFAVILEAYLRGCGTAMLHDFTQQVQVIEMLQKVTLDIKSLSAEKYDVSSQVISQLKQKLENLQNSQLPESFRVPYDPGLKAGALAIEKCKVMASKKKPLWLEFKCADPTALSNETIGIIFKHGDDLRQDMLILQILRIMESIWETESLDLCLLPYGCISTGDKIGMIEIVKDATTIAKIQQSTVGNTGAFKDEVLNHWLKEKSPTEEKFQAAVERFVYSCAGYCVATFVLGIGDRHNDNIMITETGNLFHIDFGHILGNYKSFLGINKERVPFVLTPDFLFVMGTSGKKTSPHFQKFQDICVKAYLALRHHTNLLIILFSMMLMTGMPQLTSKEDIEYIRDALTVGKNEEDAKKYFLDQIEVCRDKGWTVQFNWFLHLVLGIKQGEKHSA
Experiment: PI 3-Kinase (human) HTRF assay, PI3K γ
Type: biochemical
Conditions: read-out: PI3K γ IC50
# IC50 annotations

Solved cases (3 shown):
{"compound": "Nc1nc2cc(-c3ccc4ncc(N5CCN(C(=O)[C@@H](N)CO)CC5)nc4c3)ccc2o1 [Compound 298]", "assay.system": "PI3K γ (p110γ) (Homo sapiens, UniProt P48736)", "IC50": "< 10 µM"}
{"compound": "CN1CCN(c2ncnc3ccc(-c4ccc5oc(N)nc5c4)cc23)CC1 [Compound 23]", "assay.system": "PI3K γ (p110γ) (Homo sapiens, UniProt P48736)", "IC50": "< 0.1 µM"}
{"compound": "CS(=O)(=O)N1CCC(Nc2ncnc3ccc(-c4ccc5oc(N)nc5c4)cc23)CC1 [Compound 87]", "assay.system": "PI3K γ (p110γ) (Homo sapiens, UniProt P48736)", "IC50": "< 0.1 µM"}

Next item in the queue.
[ask] Give the measured IC50 for CS(=O)(=O)N1CCN(C2CN(c3cnc4ccc(-c5ccc6oc(N)nc6c5)cc4n3)C2)CC1 [Compound 328]
[reply] < 10 µM

* * *

# pIC50 annotations
Target: PI3K δ (Homo sapiens)
Construct: purchased Upstate / Millipore Corporation
Assay: PI 3-Kinase (human) HTRF assay, PI3K δ
Assay type: biochemical
Conditions: read-out: PI3K δ IC50
pIC50: −log10 of the molar value.

Solved cases (6 shown):
{"compound": "Cc1nc(NC(=O)N2CCC[C@H]2C(N)=O)sc1-c1ccc2oc(N)nc2c1", "pIC50": "< 5.00"}
{"compound": "CN1CCC(n2cnc3ccc(-c4ccc5oc(N)nc5c4)cc3c2=O)CC1", "pIC50": "> 5.00"}
{"compound": "Nc1nc2cc(-c3ccc4c(N)n[nH]c4c3)ccc2o1", "pIC50": "< 5.00"}
{"compound": "COc1ncc(-c2ccc3ncc(C(=O)N4CCOCC4)n3c2)cc1NS(=O)(=O)c1ccccc1F", "pIC50": "> 6.00"}
{"compound": "CC(=O)n1nc(N)c2ccc(-c3ccc4oc(N)nc4c3)cc21", "pIC50": "< 5.00"}
{"compound": "CC1(C)CN(C2CN(c3cnc4ccc(-c5ccc6oc(N)nc6c5)cc4n3)C2)CCN1", "pIC50": "> 6.00"}

[ask] Give the measured pIC50 for Nc1nc2cc(-c3cnc4ncc(-c5ccncc5)n4c3)ccc2o1
[reply] < 5.00

[ask] Give the measured pIC50 for Cc1nc2ccc(-c3ccc4oc(N)nc4c3)cn2c1C(=O)N1CCOCC1
[reply] < 5.00

* * *

# IC50 annotations
Biological target: PI3K β (p110β/p85α) (Homo sapiens, UniProt P42338)
Construct: purchased Upstate / Millipore Corporation
Sequence (P42338 whole entry): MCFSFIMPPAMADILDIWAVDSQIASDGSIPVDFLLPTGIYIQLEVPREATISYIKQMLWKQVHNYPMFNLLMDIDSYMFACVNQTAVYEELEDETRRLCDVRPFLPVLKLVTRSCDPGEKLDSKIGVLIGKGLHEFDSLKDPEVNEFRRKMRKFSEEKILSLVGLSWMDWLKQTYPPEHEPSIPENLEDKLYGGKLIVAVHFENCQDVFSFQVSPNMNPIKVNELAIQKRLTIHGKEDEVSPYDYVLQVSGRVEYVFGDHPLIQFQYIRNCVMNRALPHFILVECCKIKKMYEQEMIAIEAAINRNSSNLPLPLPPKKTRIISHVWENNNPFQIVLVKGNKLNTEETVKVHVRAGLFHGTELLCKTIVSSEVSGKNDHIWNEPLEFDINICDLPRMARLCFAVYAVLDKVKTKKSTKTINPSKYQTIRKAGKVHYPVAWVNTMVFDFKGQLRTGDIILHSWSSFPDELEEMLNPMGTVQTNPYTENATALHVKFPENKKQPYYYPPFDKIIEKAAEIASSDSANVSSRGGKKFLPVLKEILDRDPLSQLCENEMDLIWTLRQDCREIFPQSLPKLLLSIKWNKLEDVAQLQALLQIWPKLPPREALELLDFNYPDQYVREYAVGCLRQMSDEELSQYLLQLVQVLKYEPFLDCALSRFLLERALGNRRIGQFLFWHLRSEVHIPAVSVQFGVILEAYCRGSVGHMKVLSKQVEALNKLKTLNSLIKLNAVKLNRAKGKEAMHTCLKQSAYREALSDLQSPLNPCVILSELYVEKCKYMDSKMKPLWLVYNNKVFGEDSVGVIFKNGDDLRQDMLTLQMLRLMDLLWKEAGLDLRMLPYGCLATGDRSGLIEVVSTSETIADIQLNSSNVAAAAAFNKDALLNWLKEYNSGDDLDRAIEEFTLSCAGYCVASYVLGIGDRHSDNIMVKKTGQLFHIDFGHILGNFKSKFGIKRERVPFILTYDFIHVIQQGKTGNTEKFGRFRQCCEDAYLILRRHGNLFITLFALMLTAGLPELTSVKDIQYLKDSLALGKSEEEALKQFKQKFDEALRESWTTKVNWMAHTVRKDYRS
Sequence (P27986 whole entry partner): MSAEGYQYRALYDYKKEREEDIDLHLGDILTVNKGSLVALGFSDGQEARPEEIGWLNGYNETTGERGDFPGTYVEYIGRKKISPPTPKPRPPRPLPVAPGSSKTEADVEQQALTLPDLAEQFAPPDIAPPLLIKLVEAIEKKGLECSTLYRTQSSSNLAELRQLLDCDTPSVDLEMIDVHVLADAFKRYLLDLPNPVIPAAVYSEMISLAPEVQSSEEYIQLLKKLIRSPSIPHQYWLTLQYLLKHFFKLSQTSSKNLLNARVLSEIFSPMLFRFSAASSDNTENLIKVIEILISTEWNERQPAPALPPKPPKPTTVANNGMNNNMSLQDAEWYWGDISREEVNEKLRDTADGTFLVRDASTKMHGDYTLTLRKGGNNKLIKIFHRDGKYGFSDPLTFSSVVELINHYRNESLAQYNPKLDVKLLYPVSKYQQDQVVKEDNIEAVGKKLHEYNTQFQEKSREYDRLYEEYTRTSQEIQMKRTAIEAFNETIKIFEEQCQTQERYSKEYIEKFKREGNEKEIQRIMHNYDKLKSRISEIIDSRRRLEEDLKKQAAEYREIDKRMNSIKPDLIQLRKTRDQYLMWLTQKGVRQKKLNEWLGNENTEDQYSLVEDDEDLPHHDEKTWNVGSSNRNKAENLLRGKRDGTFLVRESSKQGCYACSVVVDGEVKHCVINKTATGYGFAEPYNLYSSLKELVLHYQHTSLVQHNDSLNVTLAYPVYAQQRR
Assay: PI 3-Kinase (human) HTRF assay, PI3K β
Type: biochemical
Settings: read-out: PI3K β IC50

{"compound": "COc1ncc(-c2ccc3ncc(C(=O)N4CCOCC4)n3c2)cc1N [Compound 414]", "IC50": "> 10 µM"}
{"compound": "Nc1cn2cc(-c3ccc4oc(N)nc4c3)ccc2n1 [Compound 245]", "IC50": "< 10 µM"}
{"compound": "CC(C)N1CCC(n2cnc3ccc(-c4cnc(Cl)c(NS(C)(=O)=O)c4)cc3c2=O)CC1 [Compound 523]", "IC50": "< 1 µM"}
{"compound": "Nc1nc2ccc(-c3ccc4ncn(C5CCOCC5)c(=O)c4c3)cc2o1 [Compound 63]", "IC50": "> 10 µM"}
{"compound": "CS(=O)(=O)Nc1nc2cc(-c3ccc4ncc(C(=O)N5CCOCC5)n4c3)ccc2o1 [Compound 405]", "IC50": "> 10 µM"}

[ask] Determine reported IC50 for COc1ccc(-c2ccc3ncc(C(=O)N4CCOCC4)n3c2)cc1NS(C)(=O)=O [Compound 456] ; test system: PI3K β (p110β/p85α) (Homo sapiens, UniProt P42338).
[reply] > 10 µM

[ask] Determine reported IC50 for Cc1nccn1-c1cnc2ccc(-c3ccc4oc(N)nc4c3)cc2n1 [Compound 174] ; test system: PI3K β (p110β/p85α) (Homo sapiens, UniProt P42338).
[reply] < 1 µM

[ask] Determine reported IC50 for O=C(c1cnc2ccc(-c3ccc4oc(Nc5ccccc5)nc4c3)cn12)N1CCOCC1 [Compound 407] ; test system: PI3K β (p110β/p85α) (Homo sapiens, UniProt P42338).
[reply] < 10 µM
